Biological target: monkey GPC3-His protein (monkey)
Experiment: ELISA, monkey GPC3-His coated; antibody 0.11 nM
parameter: OD450 nm

{"binder": "hAb007LH3L1b (antibody, human IgG1, V domains shown) VH: EVQLVQSGAEVKKPGSSVKVSCKASGYTFTDYEMHWVRQAPGQGLEWMGTIDPETGNTAYNQKFKGRVTLTADKSTSTAYMELSSLRSEDTAVYYCTRPYSLTYWGQGTLVTVSS VL: DIVMTQTPLSLPVTPGEPASISCRSSQSFVHSNRDTYLQWYLQKPGQSPQLLIYKVSNRFSGVPDRFSGSGSGTDFTLKISRVEAEDVGVYYCFQGSHVPYTFGQGTKLEIK", "result-number": 0.801}
{"binder": "hAb006LH2L1b (antibody, human IgG1, V domains shown) VH: EVQLVQSGAEVKKPGSSVKVSCKASGYTFTDYEIHWVRQAPGQGLEWMGAIDPKTGNTAYNQKFMGRVTITADKSTSTAYMELSSLRSEDTAVYYCTRYFSFAYWGQGTLVTVSS VL: DIVMTQTPLSLPVTPGEPASISCRSSQTFVHSNANTYLQWYLQKPGQSPQLLIYKVSNRFSGVPDRFSGSGSGTDFTLKISRVEAEDVGVYYCFQGSHVPYTFGQGTKLEIK", "result-number": 2.1}
{"binder": "hAb005LH2L1a (antibody, human IgG1, V domains shown) VH: EVQLVQSGAEVKKPGASVKVSCKASGYTFTDYEMHWVRQAPGQGLEWMGAIDPETGNTAYIQKFKGRVTLTTDKSTSTAYMELRSLRSDDTAVYYCTRFYSYSHWGQGTTVTVSS VL: DIVMTQTPLSLPVTPGEPASISCRSSQSLVHSDGNTYLHWYLQKPGQSPQLLIYKVSNRFSGVPDRFSGSGSGTDFTLKISRVEAEDVGVYYCSQNTHVPPTFGGGTKVEIK", "result-number": 0.042}
